System: Scierotinia minor
protocol-summary: Fungal growth inhibition, treated disc on agar (SCL MIN)
Assay type: cell-based
assay-context: disc dipped in 500 mg/l, 29° C., read-out: Percent Growth Inhibition, SCL MIN
readout-label: inhibition at 500 µg/mL (%)
Please reply with the bare figure in % and do not write the unit itself.

# count of solved cases: 10
| compound | inhibition at 500 µg/mL (%) |
| --- | --- |
| CCCCCC(C#N)(CCc1ccc(F)cc1)c1cccnc1 (stereo not drawn) [Compound 60] | 100 |
| CCCCC(C#N)(Cc1ccc(C(C)(C)C)cc1)c1cccnc1 (stereo not drawn) [Compound 19] | 100 |
| CCCCCCC(C#N)(CCc1ccc(F)cc1)c1cccnc1 (stereo not drawn) [Compound 45] | 100 |
| C#CCC(C#N)(CCc1ccc(F)cc1)c1cccnc1 (stereo not drawn) [Compound 41] | 48 |
| CCCC(C#N)(CCc1ccccc1)c1cccnc1 (stereo not drawn) [Compound 1] | 100 |
| N#CC(CCc1ccc(F)cc1)(CCC(F)(F)F)c1cccnc1 (stereo not drawn) [Compound 77] | 40 |
| N#CC(CCCC(F)(F)F)(CCc1ccc(F)cc1)c1cccnc1 (stereo not drawn) [Compound 78] | 20 |
| CCCCC(C#N)(CCc1ccc(C)cc1)c1cccnc1 (stereo not drawn) [Compound 34] | 100 |
| Cc1ccc(CCC(C#N)(CCCC(F)(F)F)c2cccnc2)cc1 (stereo not drawn) [Compound 79] | 5 |
| C=CCC(C#N)(CCc1ccccc1)c1cccnc1 (stereo not drawn) [Compound 5] | 95 |

Entry CCCC(C#N)(CCc1ccccc1C(F)(F)F)c1cccnc1 (stereo not drawn) [Compound 72] has what inhibition at 500 µg/mL?
100

Please answer likewise for CCCCOc1ccc(CCC(C#N)(CC(C)C)c2cccnc2)cc1 (stereo not drawn) [Compound 58]
75

Please answer likewise for CC(C)CC(C#N)(CCc1ccccc1)c1cccnc1 (stereo not drawn) [Compound 7]
10

Please answer likewise for CCCCC(C#N)(CCc1ccccc1)c1ccncc1 (stereo not drawn) [Compound 26]
96

Please answer likewise for COCC(C#N)(CCc1ccc(OC)cc1)c1cccnc1 (stereo not drawn) [Compound 50]
100

Please answer likewise for C#CCC(C#N)(CCc1ccc(OC)cc1)c1cccnc1 (stereo not drawn) [Compound 38]
46

Please answer likewise for C=CCC(C#N)(CCc1ccc(OCCCC)cc1)c1cccnc1 (stereo not drawn) [Compound 56]
45

Please answer likewise for C=CCC(C#N)(CCc1ccc(C)cc1)c1cccnc1 (stereo not drawn) [Compound 33]
100

Please answer likewise for COCC(C#N)(CCc1ccccc1)c1cccnc1 (stereo not drawn) [Compound 6]
100

Please answer likewise for Cc1ccc(CCC(C#N)(CCC(F)(F)F)c2cccnc2)cc1 (stereo not drawn) [Compound 80]
5

Please answer likewise for C#CCC(C#N)(CCc1ccccc1)c1cccnc1 (stereo not drawn) [Compound 4]
98

---

Tested on: Scierotinia minor
protocol-summary: Fungal growth inhibition, treated disc on agar (SCL MIN)
Assay type: cell-based
assay-context: disc dipped in 500 mg/l, 29° C., read-out: Percent Growth Inhibition, SCL MIN
readout-label: inhibition at 500 µg/mL (%)
Please reply with the bare figure in % and do not write the unit itself.

| compound | system-tested | inhibition at 500 µg/mL [%] |
| --- | --- | --- |
| CCCCOc1ccc(CCC(C#N)(CCC)c2cccnc2)cc1 (stereo not shown) | Scierotinia minor | 65 |
| C=C(Cl)CC(C#N)(CCc1ccc(F)cc1)c1cccnc1 (stereo not shown) | Scierotinia minor | 100 |
| CC(C)(C)c1ccc(CC(C#N)(Cc2ccc(C(C)(C)C)cc2)c2cccnc2)cc1 [B, reference compound] | Scierotinia minor | 60 |
| N#CC(CCCF)(CCc1ccccc1F)c1cccnc1 (stereo not shown) | Scierotinia minor | 100 |
| CC=CCC(C#N)(CCc1ccc(F)cc1)c1cccnc1 (stereo not shown) | Scierotinia minor | 70 |
| C=CCC(C#N)(CCc1ccc(F)cc1)c1cccnc1 (stereo not shown) | Scierotinia minor | 98 |
| CCCC(C#N)(CCc1ccccc1F)c1cccnc1 (stereo not shown) | Scierotinia minor | 92 |
| C=CCC(C#N)(Cc1ccc(C(C)(C)C)cc1)c1cccnc1 (stereo not shown) | Scierotinia minor | 10 |
| CCCCC(C#N)(CCCc1ccc(Cl)cc1)c1cccnc1 (stereo not shown) | Scierotinia minor | 94 |

Lab note: next compound to report on.
Test system Scierotinia minor; read-out inhibition at 500 µg/mL; what value for CCCC(C#N)(CCc1ccc(F)cc1)c1cccnc1 (stereo not shown) ?
100

---

Test system: Cercosporidium personatum
protocol-summary: Fungal germination and growth, treated disc on agar, scored (CER PER)
Type: cell-based
Design: key: 100: Complete inhibition of germination and growth.; 80: Nearly complete inhibition but some growth.; 50: Partial inhibition of growth or, early complete inhibition but later growth begins.; 20: Some inhibition of growth, but not significant.; 0: No inhibition of growth
assay-context: disc dipped in 500 mg/l, 29° C., numerical score 0-100, spore suspension
Below, each of the compounds is paired with its reported CER PER inhibition score value.

# count of solved cases: 6
| compound | readout-label | assay-result |
| --- | --- | --- |
| CCCCCC(C#N)(CCc1ccccc1)c1cccnc1 (centres unmarked) | CER PER inhibition score | 100 |
| C=CCC(C#N)(CCc1ccc(OCCCC)cc1)c1cccnc1 (centres unmarked) | CER PER inhibition score | 0 |
| CCCC(C#N)(Cc1ccc(C(C)(C)C)cc1)c1cccnc1 (centres unmarked) | CER PER inhibition score | 0 |
| CC(C)CC(C#N)(CCc1ccccc1)c1cccnc1 (centres unmarked) | CER PER inhibition score | 0 |
| CCCCCC(C#N)(CCc1ccc(OC)cc1)c1ccccn1 (centres unmarked) | CER PER inhibition score | 0 |
| Cc1ccc(CCC(C#N)(CCCC(F)(F)F)c2cccnc2)cc1 (centres unmarked) | CER PER inhibition score | 0 |

Entry CCCCC(C#N)(CCc1ccccc1)c1ccncc1 (centres unmarked) has what CER PER inhibition score?
0

Please answer likewise for CCCCCCCC(C#N)(CCc1ccccc1)c1cccnc1 (centres unmarked)
100

Please answer likewise for CCCC(C#N)(CCc1ccccc1F)c1cccnc1 (centres unmarked)
0

Please answer likewise for CCCCC(C#N)(CCc1ccc(C)cc1)c1cccnc1 (centres unmarked)
0

Please answer likewise for CCCCC(C#N)(Cc1ccc(C(C)(C)C)cc1)c1cccnc1 (centres unmarked)
100

Please answer likewise for CCCCC(C#N)(CCc1ccccc1C(F)(F)F)c1cccnc1 (centres unmarked)
0

Please answer likewise for CCCCC(C#N)(CCCc1ccc(OC)cc1)c1cccnc1 (centres unmarked)
100

Please answer likewise for CC(C)=CCC(C#N)(CCc1ccc(F)cc1)c1cccnc1 (centres unmarked)
0

---

Below, each of the compounds is paired with its reported CER PER inhibition score value.
Test system: Cercosporidium personatum
protocol-summary: Fungal germination and growth, treated disc on agar, scored (CER PER)
Format: cell-based
Set-up: key: 100: Complete inhibition of germination and growth.; 80: Nearly complete inhibition but some growth.; 50: Partial inhibition of growth or, early complete inhibition but later growth begins.; 20: Some inhibition of growth, but not significant.; 0: No inhibition of growth
assay-context: disc dipped in 500 mg/l, 29° C., numerical score 0-100, spore suspension
Hey, just send me the number, nothing else.

# count of solved cases: 9
| compound | system-tested | readout-label | assay-result |
| --- | --- | --- | --- |
| CC(C)(C)c1ccc(CC(C#N)(Cc2ccc(C(C)(C)C)cc2)c2cccnc2)cc1 [B, reference compound] | Cercosporidium personatum | CER PER inhibition score | 0 |
| CCCC(C#N)(CCc1ccccc1)c1ccncc1 (stereo not shown) | Cercosporidium personatum | CER PER inhibition score | 0 |
| CCCCC(C#N)(CCc1ccc(OCC)cc1)c1cccnc1 (stereo not shown) | Cercosporidium personatum | CER PER inhibition score | 0 |
| CC=CCC(C#N)(CCc1ccc(F)cc1)c1cccnc1 (stereo not shown) | Cercosporidium personatum | CER PER inhibition score | 0 |
| C=CCC(C#N)(CCCc1ccccc1OC)c1cccnc1 (stereo not shown) | Cercosporidium personatum | CER PER inhibition score | 100 |
| N#CC(CCF)(CCc1ccc(F)cc1)c1cccnc1 (stereo not shown) | Cercosporidium personatum | CER PER inhibition score | 0 |
| CCCC(C#N)(CCc1ccccc1)c1cccnc1 (stereo not shown) | Cercosporidium personatum | CER PER inhibition score | 100 |
| CCCCCCC(C#N)(Cc1ccc(C(C)(C)C)cc1)c1cccnc1 (stereo not shown) | Cercosporidium personatum | CER PER inhibition score | 0 |
| COCC(C#N)(CCc1ccc(F)cc1)c1cccnc1 (stereo not shown) | Cercosporidium personatum | CER PER inhibition score | 100 |

Entry CC(C)=CCC(C#N)(CCc1ccccc1)c1cccnc1 (stereo not shown) has what CER PER inhibition score?
80

---

Tested on: Erysiphe graminis
protocol-summary: Powdery mildew in barley, foliar application (ERY GRA)
Format: in vivo
assay-context: foliar, 1,000 mg/l, 8 days after inoculation
# strict inequality: Percent Reduction of Disease, ERY GRA < 90% yields fulfilled, everything else yields not fulfilled

// known answers, use as guide
| molecule | system-tested | answer-label |
| --- | --- | --- |
| CC(C)CCC(C#N)(CCc1ccc(F)cc1)c1cccnc1 (stereo not drawn) [Compound 55] | Erysiphe graminis | not fulfilled |
| N#CC(CCCc1ccc(Cl)cc1)(CC1CC1)c1ccccn1 (stereo not drawn) [Compound 32] | Erysiphe graminis | not fulfilled |
| COc1ccc(CCC(C#N)(CC(C)C)c2ccccn2)cc1 (stereo not drawn) [Compound 29] | Erysiphe graminis | not fulfilled |
| CCCCC(C#N)(CCc1ccc(OCCC)cc1)c1cccnc1 (stereo not drawn) [Compound 69] | Erysiphe graminis | fulfilled |
| CCCCC(C#N)(CCc1ccc(OC)cc1)c1ccccn1 (stereo not drawn) [Compound 31] | Erysiphe graminis | fulfilled |

Attention now turns to another entry.
Hello, is Percent Reduction of Disease, ERY GRA of the following molecule strictly smaller than 90%? CCCCCC(C#N)(CCc1ccc(OC)cc1)c1ccccn1 (stereo not drawn) [Compound 30]
not fulfilled
